MEASURED_TARGET: KRas G12R (Homo sapiens, UniProt P01116, G12R)
Sequence (P01116 1-169 isoform P01116-2 G12R): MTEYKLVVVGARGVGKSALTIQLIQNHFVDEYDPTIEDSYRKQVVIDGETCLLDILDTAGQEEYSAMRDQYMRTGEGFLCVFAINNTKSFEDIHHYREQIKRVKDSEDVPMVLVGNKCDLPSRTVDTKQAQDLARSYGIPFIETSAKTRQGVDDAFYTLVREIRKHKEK
ASSAY_OVERVIEW: biochemical
CONDITION_PARAMETERS: Binding to KRas (IC50 nM) G12R, TR-FRET displacement, KRas G12R
QUANTITY_NAME: IC50 (nM)

(I) CCc1c(F)ccc2cc(O)cc(N3CCc4c(nc(OC[C@@]56CCCN5C[C@H](F)C6)nc4N4CCCn5nc(N(C)C)cc5C4)C3)c12
(II) CCc1c(F)ccc2cc(O)cc(N3CCc4c(nc(N5CC(N)C5)nc4N4CCC[C@@](C)(O)C4)C3)c12
Enquiry: Between I and II , which one has the lower reported IC50 value? Pick one; state its label.
Return: I
